# Test summary: NCI Yeast Anticancer Drug Screen. Data for the bub3 strain (AID 167)
# Condition set: S. cerevisiae bub3 mutant strain, at 50.0 µM, hits give high values
About 79,000 compounds went through this panel and 15% of them were active in at least one assay; those are over-represented in the sample as a whole. The source made the active and inactive calls. No stated cut-off is given here; in the data, active means growth inhibition above about 70%; inactive means the rest.
What growth inhibition was measured for each of the following?

Which growth inhibition is reported for this compound? COc1ccc(C(=O)NNC(=O)c2ccccc2)cc1 -1.1% (inactive)

Need growth inhibition of CC(C)[C@@]12O[C@@H]1CC13OC1[C@@H](O)CC[C@@]32O (stereo partly drawn) , thanks. -6.25% (inactive)

# query: growth inhibition of entry O=C(Nc1ccc(Cl)cc1)OCCN(CCOC(=O)Nc1ccc(Cl)cc1)C(=O)Nc1ccc(Cl)cc1 -7.8% (inactive)
